test system: Saccharomyces cerevisiae; test: protein stability index of tFT-peptide fusion (C-terminal peptide) (PSI (0-1 scale)); higher = more stable (slower turnover); conditions: genetic background: wild type; temperature: 30 C;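 note: PSI is a weighted mean of sequencing reads over stability bins, variants kept only with over 10 reads, mCherry proximal and sfGFP distal, peptide attached via GGGS linker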

Chain Sequence | Target System | protein stability index
RPFPLTRPTLLF | Saccharomyces cerevisiae | 0.67
WNLESKTEARTR | Saccharomyces cerevisiae | 0.704
NEYFYINVRNRV | Saccharomyces cerevisiae | 0.674
RVYKCNMKNNSK | Saccharomyces cerevisiae | 0.661
DGYYRIVRPEAI | Saccharomyces cerevisiae | 0.626
VGGLMVYTGDVA | Saccharomyces cerevisiae | 0.704
RPTQYIYGINET | Saccharomyces cerevisiae | 0.652
GLQFRPFCVLEL | Saccharomyces cerevisiae | 0.634
CLSILRNVVPII | Saccharomyces cerevisiae | 0.723
SLLLLSLCRFVG | Saccharomyces cerevisiae | 0.372
FSLSVVGLSRWG | Saccharomyces cerevisiae | 0.78
GVFVWVVFVCTM | Saccharomyces cerevisiae | 0.268
PSPRPFPPPLPP | Saccharomyces cerevisiae | 0.626
PSPLPLLPPPRP | Saccharomyces cerevisiae | 0.645
CWGGRSYVYNIG | Saccharomyces cerevisiae | 0.662
PPPTRAPPPKPG | Saccharomyces cerevisiae | 0.621
KKTSQKQKGKRQ | Saccharomyces cerevisiae | 0.671
GGTSVLPPAVLF | Saccharomyces cerevisiae | 0.762
GCGGGVCGWWDA | Saccharomyces cerevisiae | 0.916
